Numbers sourced from BigSolDB 2.1.

- measurementConditions: in n-butyl acetate, 288.15 K
valueType: solubility (mole fraction)

| structureSmiles | observedMeasurement |
| --- | --- |
| c1ccc2[nH]c(-c3cscn3)nc2c1 | 0.000544 |

====

- measurementConditions: in isopropanol, 283.15 K

| structureSmiles | solubility (mole fraction) |
| --- | --- |
| c1ccc2[nH]c(-c3cscn3)nc2c1 | 0.000699 |

====

- measurementConditions: in n-butanol, 303.15 K

| structureSmiles | solubility (mole fraction) |
| --- | --- |
| c1ccc2[nH]c(-c3cscn3)nc2c1 | 0.00266 |

====

- measurementConditions: in isopropanol, 318.15 K

| structureSmiles | solubility (mole fraction) |
| --- | --- |
| c1ccc2[nH]c(-c3cscn3)nc2c1 | 0.00182 |

====

- measurementConditions: in isopropanol, 303.15 K

| structureSmiles | solubility (mole fraction) |
| --- | --- |
| c1ccc2[nH]c(-c3cscn3)nc2c1 | 0.00118 |

====

- measurementConditions: in isopropanol, 298.15 K
valueType: solubility (mole fraction)

| structureSmiles | observedMeasurement |
| --- | --- |
| c1ccc2[nH]c(-c3cscn3)nc2c1 | 0.000954 |

====

- measurementConditions: in ethyl acetate, 313.15 K
valueType: solubility (mole fraction)

| structureSmiles | observedMeasurement |
| --- | --- |
| c1ccc2[nH]c(-c3cscn3)nc2c1 | 0.00109 |

====

- measurementConditions: in acetone, 323.15 K
valueType: solubility (mole fraction)

| structureSmiles | valueType | observedMeasurement |
| --- | --- | --- |
| c1ccc2[nH]c(-c3cscn3)nc2c1 | solubility (mole fraction) | 0.00173 |

====

- measurementConditions: in ethanol, 318.15 K
valueType: solubility (mole fraction)

| structureSmiles | observedMeasurement |
| --- | --- |
| c1ccc2[nH]c(-c3cscn3)nc2c1 | 0.00274 |

====

- measurementConditions: in 2-butanone, 283.15 K

| structureSmiles | solubility (mole fraction) |
| --- | --- |
| c1ccc2[nH]c(-c3cscn3)nc2c1 | 0.0012 |

====

- measurementConditions: in n-butanol, 308.15 K

| structureSmiles | solubility (mole fraction) |
| --- | --- |
| c1ccc2[nH]c(-c3cscn3)nc2c1 | 0.0029 |

====

- measurementConditions: in methanol, 303.15 K

| structureSmiles | solubility (mole fraction) |
| --- | --- |
| c1ccc2[nH]c(-c3cscn3)nc2c1 | 0.00211 |

====

- measurementConditions: in ethanol, 298.15 K

| structureSmiles | solubility (mole fraction) |
| --- | --- |
| c1ccc2[nH]c(-c3cscn3)nc2c1 | 0.00163 |

====

- measurementConditions: in methanol, 288.15 K

| structureSmiles | solubility (mole fraction) |
| --- | --- |
| c1ccc2[nH]c(-c3cscn3)nc2c1 | 0.00142 |

====

- measurementConditions: in n-propanol, 313.15 K
valueType: solubility (mole fraction)

| structureSmiles | valueType | observedMeasurement |
| --- | --- | --- |
| c1ccc2[nH]c(-c3cscn3)nc2c1 | solubility (mole fraction) | 0.00274 |

====

- measurementConditions: in acetone, 318.15 K
valueType: solubility (mole fraction)

| structureSmiles | valueType | observedMeasurement |
| --- | --- | --- |
| c1ccc2[nH]c(-c3cscn3)nc2c1 | solubility (mole fraction) | 0.00153 |

====

- measurementConditions: in n-butanol, 288.15 K

| structureSmiles | solubility (mole fraction) |
| --- | --- |
| c1ccc2[nH]c(-c3cscn3)nc2c1 | 0.0018 |

====

- measurementConditions: in acetone, 288.15 K
valueType: solubility (mole fraction)

| structureSmiles | observedMeasurement |
| --- | --- |
| c1ccc2[nH]c(-c3cscn3)nc2c1 | 0.000711 |

====

- measurementConditions: in methyl acetate, 303.15 K

| structureSmiles | solubility (mole fraction) |
| --- | --- |
| c1ccc2[nH]c(-c3cscn3)nc2c1 | 0.000758 |

====

- measurementConditions: in ethyl acetate, 303.15 K

| structureSmiles | solubility (mole fraction) |
| --- | --- |
| c1ccc2[nH]c(-c3cscn3)nc2c1 | 0.000825 |
